# system: human tankyrase 1 PARP catalytic domain, TNKS1P (GST-tagged) (Homo sapiens (Human), UniProt O95271)
# Sequence (O95271 1112-1317): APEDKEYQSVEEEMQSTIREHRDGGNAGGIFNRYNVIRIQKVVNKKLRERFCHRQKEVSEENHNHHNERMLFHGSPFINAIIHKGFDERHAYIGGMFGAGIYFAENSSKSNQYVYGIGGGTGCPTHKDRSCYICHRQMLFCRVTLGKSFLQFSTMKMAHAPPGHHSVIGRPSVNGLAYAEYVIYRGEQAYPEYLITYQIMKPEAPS
pIC50: −log10 of the molar value.

{"compound": "COc1ccc2c(c1)CC1(CCN([C@@H]3CCN(Cc4nc5c(c(=O)[nH]4)COCC5)C3=O)CC1)C2=O", "pIC50": 5.41}
{"compound": "COc1ccc(C(=O)C2CCN(C3CCN(CC(=O)Nc4nnc5n4CCS5)C3=O)CC2)cc1 (centres unmarked)", "pIC50": 7.37}
{"compound": "COc1ccc(C(=O)C2CCN([C@@H]3CCN(Cc4nc5c(c(=O)[nH]4)COCC5)C3=O)CC2)cc1", "pIC50": 5.80}
{"compound": "COc1ccc2c(c1)CC1(CCN(C3CCN(Cc4nc5c(c(=O)[nH]4)COCC5)C3=O)CC1)C2=O (centres unmarked)", "pIC50": 7.48}
{"compound": "COc1ccc(C(=O)C2CCN(C3CCN(Cc4nc(C)c(C)c(=O)[nH]4)C3=O)CC2)cc1 (centres unmarked)", "pIC50": 7.33}
{"compound": "COc1ccc(C(=O)C2CCN(C3CCN(Cc4ncc(C)c(=O)[nH]4)C3=O)CC2)cc1 (centres unmarked)", "pIC50": 7.14}
{"compound": "COc1ccc(C(=O)C2CCN(C3CCN(Cc4nc5ccccc(=O)c5[nH]4)C3=O)CC2)cc1 (centres unmarked)", "pIC50": 7.44}
{"compound": "COc1ccc(C(=O)C2CCN(C3CCN(CC(=O)Nc4nnnn4C)C3=O)CC2)cc1 (centres unmarked)", "pIC50": 5.51}
{"compound": "COc1ccc(C(=O)C2CCN(C3CCN(Cc4cccc(Cl)c4C#N)C3=O)CC2)cc1 (centres unmarked)", "pIC50": 6.79}
{"compound": "COc1ccc(C(=O)C2CCN([C@H]3CCN(Cc4nc5c(c(=O)[nH]4)COCC5)C3=O)CC2)cc1", "pIC50": 7.89}
{"compound": "COc1ccc2c(c1)CC1(CCN([C@H]3CCN(Cc4nc5c(c(=O)[nH]4)COCC5)C3=O)CC1)C2=O", "pIC50": 7.92}

* * *

Entries with reported IC50 on UniProt:P09874
Sequence (P09874 whole entry): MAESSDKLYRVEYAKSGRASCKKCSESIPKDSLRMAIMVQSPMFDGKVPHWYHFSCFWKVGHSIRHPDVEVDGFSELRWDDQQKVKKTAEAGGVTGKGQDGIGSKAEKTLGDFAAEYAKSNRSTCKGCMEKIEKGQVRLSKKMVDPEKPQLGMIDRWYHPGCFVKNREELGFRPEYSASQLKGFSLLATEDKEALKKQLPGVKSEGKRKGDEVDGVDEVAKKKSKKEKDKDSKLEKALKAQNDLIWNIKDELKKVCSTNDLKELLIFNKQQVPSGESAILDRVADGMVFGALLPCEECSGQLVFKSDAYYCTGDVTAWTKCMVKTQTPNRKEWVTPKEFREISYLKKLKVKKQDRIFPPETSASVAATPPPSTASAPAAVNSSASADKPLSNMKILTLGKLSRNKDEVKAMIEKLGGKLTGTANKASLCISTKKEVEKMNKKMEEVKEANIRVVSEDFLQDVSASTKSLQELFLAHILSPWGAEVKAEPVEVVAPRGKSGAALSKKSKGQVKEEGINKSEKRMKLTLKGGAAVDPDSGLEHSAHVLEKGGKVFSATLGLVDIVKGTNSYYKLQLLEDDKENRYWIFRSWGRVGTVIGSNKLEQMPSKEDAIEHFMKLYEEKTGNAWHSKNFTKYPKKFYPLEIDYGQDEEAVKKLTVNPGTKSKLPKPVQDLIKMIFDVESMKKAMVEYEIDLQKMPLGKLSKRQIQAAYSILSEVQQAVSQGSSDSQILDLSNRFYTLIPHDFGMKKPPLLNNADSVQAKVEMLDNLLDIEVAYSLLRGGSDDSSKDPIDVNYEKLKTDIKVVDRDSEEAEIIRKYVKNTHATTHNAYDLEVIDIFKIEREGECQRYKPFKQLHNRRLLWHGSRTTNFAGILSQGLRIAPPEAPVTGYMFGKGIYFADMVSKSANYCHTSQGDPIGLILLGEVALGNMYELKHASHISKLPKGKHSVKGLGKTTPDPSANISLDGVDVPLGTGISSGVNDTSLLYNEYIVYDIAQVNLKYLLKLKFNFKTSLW
observable: IC50

{"molecule": "COc1ccc(C(=O)C2CCN(C3CCN(CC(=O)Nc4nnc5n4CCS5)C3=O)CC2)cc1 (stereo not drawn)", "observable": "IC50", "obs-value": "> 19 µM"}
{"molecule": "COc1ccc(C(=O)C2CCN([C@@H]3CCN(CC(=O)Nc4nnc5n4CCS5)C3=O)CC2)cc1 (single isomer, unassigned)", "observable": "IC50", "obs-value": "> 19 µM"}
{"molecule": "COc1ccc(C(=O)C2CCN(C3CCN(Cc4nc(C)c(C)c(=O)[nH]4)C3=O)CC2)cc1 (stereo not drawn)", "observable": "IC50", "obs-value": "> 19 µM"}

* * *

Each item that follows carries a reported log10(IC50).
# system: tankyrase 2 protein PARP domain, TNKS2P (GST-tagged) (Homo sapiens (Human), UniProt Q9H2K2)
# Sequence (Q9H2K2 959-1164): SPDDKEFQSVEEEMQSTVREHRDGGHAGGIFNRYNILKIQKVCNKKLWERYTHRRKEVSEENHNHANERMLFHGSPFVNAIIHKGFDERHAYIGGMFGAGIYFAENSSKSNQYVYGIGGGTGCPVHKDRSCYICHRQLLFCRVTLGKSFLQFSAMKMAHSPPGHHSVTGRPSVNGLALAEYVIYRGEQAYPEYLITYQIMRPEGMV
observable: log10(IC50) (log10 of the value in nM)

{"molecule": "COc1ccc(C(=O)C2CCN(C3CCN(Cc4nc(C)c(C)c(=O)[nH]4)C3=O)CC2)cc1 (stereo not drawn)", "log10(IC50)": 1.41}
{"molecule": "COc1ccc(C(=O)C2CCN(C3CCN(Cc4cccc(Cl)c4C#N)C3=O)CC2)cc1 (stereo not drawn)", "log10(IC50)": 1.91}
{"molecule": "COc1ccc(C(=O)C2CCN([C@@H]3CCN(Cc4nc5c(c(=O)[nH]4)COCC5)C3=O)CC2)cc1", "log10(IC50)": 2.78}
{"molecule": "COc1ccc(C(=O)C2CCN(C3CCN(CC(=O)Nc4noc5ncccc45)C3=O)CC2)cc1 (stereo not drawn)", "log10(IC50)": 3.66}
{"molecule": "COc1ccc(C(=O)C2CCN(C3CCN(Cc4nc5c(c(=O)[nH]4)COCC5)C3=O)CC2)cc1 (stereo not drawn)", "log10(IC50)": 1.18}
{"molecule": "COc1ccc(C(=O)C2CCN(C3CCN(Cc4nc(C)cc(=O)[nH]4)C3=O)CC2)cc1 (stereo not drawn)", "log10(IC50)": 2.14}
{"molecule": "COc1ccc(C(=O)C2CCN([C@H]3CCN(Cc4nc5c(c(=O)[nH]4)COCC5)C3=O)CC2)cc1", "log10(IC50)": 0.98}
{"molecule": "COc1ccc(C(=O)C2CCN(C3CCN(CC(=O)Nc4nncc5c4CCCO5)C3=O)CC2)cc1 (stereo not drawn)", "log10(IC50)": 2.99}
{"molecule": "COc1ccc(C(=O)C2CCN(C3CCN(Cc4nc5sc(C)cc5c(=O)[nH]4)C3=O)CC2)cc1 (stereo not drawn)", "log10(IC50)": 2.15}
